This collection of values is drawn from patent US4868191A.

- EXPERIMENTAL PROTOCOL: Immunomodulatory activity, two-way mixed lymphocyte reaction assay (% LCV)
- Format: cell-based, murine
- PROTOCOL CONDITIONS: mouse, lymphocytes, 1.0 ug/well
MEASURE NAME: viability (%)
Your answer is read as %, so omit the unit and give the number.

Query block: Please give the measured viability for this compound: CN(C)CCc1c2c3c(c4scnc14)N(C)CCC3c1ccccc1N2 (centres unmarked) [Tetrahydrodercitin 1, tetrahydrodercitin 1]
Result block: 49

Query block: Please give the measured viability for this compound: CN(C)CCc1c2ncsc2c2c3c(c4ccccc4nc13)C=CN2C [Dercitin 1, dercitin 1]
Result block: 46

----------
Assign viability to each entry below.
- EXPERIMENTAL PROTOCOL: Immunomodulatory activity, two-way mixed lymphocyte reaction assay (% LCV)
- Format: cell-based, murine
- PROTOCOL CONDITIONS: mouse, lymphocytes, 0.01 ug/well
Number plus unit, in that order.

Query block: Please give the measured viability for this molecule: CN(C)CCc1c2ncsc2c2c3c(c4ccccc4nc13)C=CN2C [Dercitin 1, dercitin 1]
Result block: 56%

Query block: Please give the measured viability for this molecule: CN(C)CCc1c2c3c(c4scnc14)N(C)CCC3c1ccccc1N2 (centres unmarked) [Tetrahydrodercitin 1, tetrahydrodercitin 1]
Result block: 100%
